# System: HT-29
# PROTOCOL_DESCRIPTION: Cytotoxicity against human HT29 cells after 48 hrs by SRB assay
# Assay type: functional, cell-based
# CONDITION_SET: Homo sapiens, HT-29, 48 h
In this section we review reported GI50 values for a set of compounds.

SMILES_REPR: C/C=C1\NC(=O)[C@H](Cc2ccccc2)NC(=O)[C@@H](C(C)C)NC(=O)[C@@H]([C@H](C)CC)NC(=O)[C@H](NC(=O)[C@H](NC(=O)[C@H](CCCN)NC(=O)[C@H]2CCCN2C(=O)[C@H](NC(=O)[C@H](CC(C)C)NC(=O)[C@@H](NC(=O)[C@H](NC(=O)CCCC(C)C)C(C)C)[C@@H](C)O)C(C)C)[C@H](C)CC)[C@H](C)OC(=O)[C@H](C(C)C)NC1=O
MEASUREMENT_UNITS: nM
GI50: 612

SMILES_REPR: C/C=C1\NC(=O)[C@H](Cc2ccccc2)NC(=O)[C@@H](C(C)C)NC(=O)[C@@H]([C@H](C)CC)NC(=O)[C@H](NC(=O)[C@H](NC(=O)[C@H](CCCNC(=O)C(F)(F)F)NC(=O)[C@H]2CCCN2C(=O)[C@H](NC(=O)[C@@H](NC(=O)[C@@H](NC(=O)[C@H](NC(=O)CC[C@@H](C)CC)C(C)C)[C@@H](C)O)C(C)C)C(C)C)[C@H](C)CC)[C@H](C)OC(=O)[C@H](C(C)C)NC1=O
MEASUREMENT_UNITS: nM
GI50: 266

SMILES_REPR: C/C=C1\NC(=O)[C@H](Cc2c[nH]c3ccccc23)NC(=O)[C@@H](C(C)C)NC(=O)[C@@H]([C@H](C)CC)NC(=O)[C@H](NC(=O)[C@H](NC(=O)[C@H](CCCN)NC(=O)[C@H]2CCCN2C(=O)[C@H](NC(=O)[C@@H](NC(=O)[C@@H](NC(=O)[C@H](NC(=O)CCCC(C)C)C(C)C)[C@@H](C)O)C(C)C)C(C)C)[C@H](C)CC)[C@H](C)OC(=O)[C@H](C(C)C)NC1=O
MEASUREMENT_UNITS: nM
GI50: 1050

src = ChEMBL document CHEMBL1156597
